method.summary: self-splicing fitness, log relative to wild type (ln ratio); higher = more splicing; Tetrahymena group I intron in knt gene, E. coli kanamycin selection, DiMSum; sequences stand for … in CUCUCU…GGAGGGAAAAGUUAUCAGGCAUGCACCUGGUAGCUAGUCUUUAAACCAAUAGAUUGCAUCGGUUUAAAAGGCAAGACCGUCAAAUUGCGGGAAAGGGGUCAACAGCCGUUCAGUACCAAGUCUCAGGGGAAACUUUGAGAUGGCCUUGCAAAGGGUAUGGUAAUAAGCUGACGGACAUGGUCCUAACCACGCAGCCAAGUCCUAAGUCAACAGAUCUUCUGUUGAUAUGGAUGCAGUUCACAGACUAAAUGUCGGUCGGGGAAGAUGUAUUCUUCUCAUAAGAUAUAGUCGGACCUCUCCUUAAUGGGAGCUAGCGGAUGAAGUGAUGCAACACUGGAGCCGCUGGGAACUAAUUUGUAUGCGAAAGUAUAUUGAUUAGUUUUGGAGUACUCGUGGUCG;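 also: selection with 25 µg/mL kanamycin versus none on LB agar overnight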
test.settings: 37 °C
attribute.measured: self-splicing fitness (ln)
Answer using only a numeral; do not append any unit.

query: self-splicing fitness (ln) lookup needed for `CCUUAGCAAUAUUACGUACU` , thanks.
result: -1.99

query: If you can, please state the reported self-splicing fitness (ln) value of `AUGUAGCAAUAUUACGGGCU` .
result: -0.877

query: Value lookup for self-splicing fitness (ln); key = `GGUCAGCAAUAUUACGAGAA`
result: -2.01

---

method.summary: self-splicing fitness, log relative to wild type (ln ratio); higher = more splicing; Tetrahymena group I intron in knt gene, E. coli kanamycin selection, DiMSum; sequences stand for … in CUCUCU…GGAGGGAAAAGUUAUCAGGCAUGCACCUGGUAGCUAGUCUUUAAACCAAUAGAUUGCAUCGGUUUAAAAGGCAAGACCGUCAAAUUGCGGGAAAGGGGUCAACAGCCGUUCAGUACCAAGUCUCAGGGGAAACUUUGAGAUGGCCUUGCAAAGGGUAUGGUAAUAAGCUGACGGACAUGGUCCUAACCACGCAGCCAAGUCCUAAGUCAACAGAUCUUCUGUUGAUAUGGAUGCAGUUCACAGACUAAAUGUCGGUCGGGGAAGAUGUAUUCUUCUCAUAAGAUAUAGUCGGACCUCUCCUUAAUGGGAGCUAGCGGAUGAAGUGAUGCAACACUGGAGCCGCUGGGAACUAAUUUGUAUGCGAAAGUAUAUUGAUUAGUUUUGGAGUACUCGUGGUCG
test.settings: 37 °C
The label depends only on self-splicing fitness (ln): yes (1) if it is at least -2, no (0) if it is smaller.

query: Could you verify whether the entry `UGCCAGCAAUAUUACGCAGU` shows self-splicing fitness (ln) of no less than -2?
result: no (0)

query: Given the entry `GAAAAGCAAUAUUACGGAUU` , answer whether its self-splicing fitness (ln) meets or surpasses -2.
result: yes (1)

query: Is it the case that `CAAAAGCAAUAUUACGGAGC` has self-splicing fitness (ln) reaching or exceeding -2?
result: no (0)

query: hey, is self-splicing fitness (ln) for this one >= -2? `GCCCAGCAAUAUUACGUCAC`
result: no (0)

query: State whether the measured self-splicing fitness (ln) reaches -2, counting equality as reaching it, for `UCAGAGCAAUAUUACGUGGC`
result: no (0)

query: Determine whether this sequence has self-splicing fitness (ln) no lower than -2: `UUCAAGCAAUAUUACGGUGC`
result: yes (1)

query: Please check the record `CCUCAGCAAUAUUACGCCUC` and state if its self-splicing fitness (ln) is at or above -2.
result: yes (1)

query: Is the recorded value of self-splicing fitness (ln) equal to or greater than -2 for this sequence? `UUCGAGCAAUAUUACGAGGA`
result: no (0)

query: Please check the record `GGGCAGCAAUAUUACGAACG` and state if its self-splicing fitness (ln) is at or above -2.
result: yes (1)

query: Please indicate if the recorded self-splicing fitness (ln) for `GUAAAGCAAUAUUACGCCGG` meets or exceeds -2.
result: yes (1)

query: Could you tell me if the measured self-splicing fitness (ln) of `CACCAGCAAUAUUACGCCAA` reaches -2 or more?
result: no (0)

query: Identify whether the reported self-splicing fitness (ln) of the following sequence is -2 or greater: `AUGCAGCAAUAUUACGACUC`
result: yes (1)

query: Record `CCAAAGCAAUAUUACGUAAG` ; criterion: self-splicing fitness (ln) no lower than -2. Met?
result: yes (1)

query: Record `GGAGAGCAAUAUUACGAUGU` ; criterion: self-splicing fitness (ln) no lower than -2. Met?
result: yes (1)

query: Given the entry `UACCAGCAAUAUUACGUGGA` , answer whether its self-splicing fitness (ln) meets or surpasses -2.
result: no (0)

query: Kindly determine if self-splicing fitness (ln) recorded for `AUUGAGCAAUAUUACGCAGA` is above or exactly -2.
result: no (0)

query: Determine whether measured self-splicing fitness (ln) meets or exceeds -2 for `GAGUAGCAAUAUUACGAUCU`
result: yes (1)

query: Exam item: decide whether the reported self-splicing fitness (ln) for `CAAGAGCAAUAUUACGUGGU` is at least -2.
result: no (0)

query: Check this sequence for self-splicing fitness (ln) at or above -2: `CAGUAGCAAUAUUACGUCGA`
result: yes (1)

query: Reported self-splicing fitness (ln) reaches at least -2 for `GGGGAGCAAUAUUACGGUGG` ?
result: no (0)

query: API: above_or_equal(metric=self-splicing fitness (ln), cutoff=-2) for item `GAGCAGCAAUAUUACGACUC`
result: yes (1)

query: Please tell me: is the sequence `UGUAAGCAAUAUUACGAGAU` at or over -2 in terms of self-splicing fitness (ln)?
result: no (0)

query: Record `ACCAAGCAAUAUUACGCCCA` ; criterion: self-splicing fitness (ln) no lower than -2. Met?
result: yes (1)

query: Reported self-splicing fitness (ln) at or above -2? `UGCAAGCAAUAUUACGACCA`
result: yes (1)

query: Is the recorded value of self-splicing fitness (ln) equal to or greater than -2 for this sequence? `AUCGAGCAAUAUUACGUGAU`
result: yes (1)

query: Form field: self-splicing fitness (ln) at least -2? Entry: `UUGAAGCAAUAUUACGCCUU`
result: yes (1)

query: Check the entry `UUUAAGCAAUAUUACGUUGG` : does self-splicing fitness (ln) equal or exceed -2?
result: yes (1)

query: Is it the case that `CGUGAGCAAUAUUACGCAUA` has self-splicing fitness (ln) reaching or exceeding -2?
result: yes (1)

---

method.summary: self-splicing fitness, log relative to wild type (ln ratio); higher = more splicing; Tetrahymena group I intron in knt gene, E. coli kanamycin selection, DiMSum; sequences stand for … in CUCUCU…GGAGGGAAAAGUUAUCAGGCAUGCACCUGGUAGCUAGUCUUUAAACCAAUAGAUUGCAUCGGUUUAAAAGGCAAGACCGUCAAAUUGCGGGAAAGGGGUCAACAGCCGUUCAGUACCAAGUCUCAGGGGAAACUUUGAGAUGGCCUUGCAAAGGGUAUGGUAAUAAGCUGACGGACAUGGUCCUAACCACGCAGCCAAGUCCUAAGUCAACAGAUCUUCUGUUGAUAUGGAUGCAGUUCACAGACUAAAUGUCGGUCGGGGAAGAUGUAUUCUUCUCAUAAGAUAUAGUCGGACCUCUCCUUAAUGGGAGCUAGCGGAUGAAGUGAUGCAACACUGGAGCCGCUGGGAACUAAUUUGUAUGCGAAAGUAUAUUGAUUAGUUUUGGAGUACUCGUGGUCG
test.settings: 37 °C
# thresholds on self-splicing fitness (ln) define classes: L (below -2), M (-2 to below -0.7), H (-0.7 or more)

query: Please indicate the class for `GCUCAGCAAUAUUACGACCC` based on its self-splicing fitness (ln).
result: H

query: Which self-splicing fitness (ln) category applies to `GACUAGCAAUAUUACGUUCC` here?
result: L

query: Place this sequence in its band: `GAGCAGCAAUAUUACGGGGG`
result: L

query: Exam item: assign `CUGAAGCAAUAUUACGGCUG` to the correct category.
result: H

query: Class label required: `CGACAGCAAUAUUACGCAGG`
result: M

query: Record `GACCAGCAAUAUUACGAUAC` — which class?
result: H

query: Which self-splicing fitness (ln) band matches `CUACAGCAAUAUUACGUUAU` ?
result: L

query: Band for `GCGCAGCAAUAUUACGGAUC` ?
result: H

query: Which class is correct for the following sequence? `CGGUAGCAAUAUUACGCACC`
result: H

query: Which bin should I file `GGAUAGCAAUAUUACGUGAG` under?
result: H

query: Dear colleague, I would appreciate it if you could identify the bin for `CAGAAGCAAUAUUACGCCGG` and reply at your convenience.
result: H

query: Lab log: `ACUAAGCAAUAUUACGGAGU` — assign self-splicing fitness (ln) category
result: L

query: Sort `AUCUAGCAAUAUUACGGAGA` into one of the categories.
result: M

query: For the record `ACUUAGCAAUAUUACGUAGG` , report the class its self-splicing fitness (ln) corresponds to.
result: M

query: Which self-splicing fitness (ln) category applies to `AUGAAGCAAUAUUACGUGGC` here?
result: L

query: Class (by measured self-splicing fitness (ln)) for `UAUAAGCAAUAUUACGAAUA`
result: M

query: Each sequence maps to one class by self-splicing fitness (ln). Which class for `ACUCAGCAAUAUUACGUACC` ?
result: H

query: Into which bin does this sequence go? `AGCAAGCAAUAUUACGCAUG`
result: L

query: Bin? `CGCUAGCAAUAUUACGCUAU`
result: L

query: Category of `AUGUAGCAAUAUUACGAUCC` :
result: H

query: GET /class?item= `CCGCAGCAAUAUUACGCCAA`
result: L

query: Class? Entry: `ACGUAGCAAUAUUACGGAAC`
result: L

query: Dear colleague, I would appreciate it if you could identify the bin for `UCGAAGCAAUAUUACGCGCG` and reply at your convenience.
result: M

query: Classify this sequence: `UGAUAGCAAUAUUACGCUUA`
result: H

query: For the record `AUAAAGCAAUAUUACGAAGG` , report the class its self-splicing fitness (ln) corresponds to.
result: M

query: Exam item: assign `AACGAGCAAUAUUACGGCGA` to the correct category.
result: M

query: Into which bin does this sequence go? `AGCAAGCAAUAUUACGGGAG`
result: M

query: Which category does the recorded self-splicing fitness (ln) put `CAGCAGCAAUAUUACGGCGA` in?
result: H

query: Quick check: band for `ACUGAGCAAUAUUACGUGAU`
result: M

query: Sort `UCUCAGCAAUAUUACGAUAG` into one of the categories.
result: M

query: Entry `CUACAGCAAUAUUACGCUAG` belongs to which category?
result: L

query: Entry `UGUUAGCAAUAUUACGCAGU` belongs to which category?
result: L

query: Would you mind sorting `GGAAAGCAAUAUUACGUGAU` into the appropriate category?
result: M

query: Into which bin does this sequence go? `UGUGAGCAAUAUUACGGCCU`
result: M

query: Class label required: `AUUUAGCAAUAUUACGUGUC`
result: L

query: GET /class?item= `AAAAAGCAAUAUUACGUCGG`
result: M

query: Sort `CUUAAGCAAUAUUACGUACU` into one of the categories.
result: L
